The reported measurements were obtained from ChEMBL document CHEMBL1806443.

System: HEp-2
protocol_description: Antiproliferative activity against human Hep2 cells after 72 hrs by MTT assay
Format: functional, cell-based
condition_description: Homo sapiens, HEp-2, 72 h
pIC50: −log10 of the molar value.
measurement_name: pIC50

{"molecule": "O=[N+]([O-])c1ccc2c(ccc3nc4ncccc4n32)c1", "measurement_name": "pIC50", "relation_operator": "<", "assay_result": 4.00}
{"molecule": "c1ccc2c(c1)ccc1nc3ncccc3n12 [7,8,11b-triazabenzo[c]fluorene]", "measurement_name": "pIC50", "relation_operator": "=", "assay_result": 4.28}
{"molecule": "Nc1ccc2c(ccc3nc4ncccc4n32)c1", "measurement_name": "pIC50", "relation_operator": "=", "assay_result": 4.41}
{"molecule": "Clc1ccccc1/C=C/c1nc2ncccc2[nH]1", "measurement_name": "pIC50", "relation_operator": "=", "assay_result": 4.53}
{"molecule": "N#Cc1ccc(/C=C/c2nc3ncc(Br)cc3[nH]2)cc1", "measurement_name": "pIC50", "relation_operator": "=", "assay_result": 5.24}
{"molecule": "N#Cc1ccc(/C=C/c2nc3ncccc3[nH]2)cc1", "measurement_name": "pIC50", "relation_operator": "=", "assay_result": 4.07}

###

Tested on: HEp-2
protocol_description: Antiproliferative activity against human Hep2 cells after 72 hrs by MTT assay
Format: functional, cell-based
condition_description: Homo sapiens, HEp-2, 72 h
pIC50: −log10 of the molar value.
measurement_name: pIC50

{"compound_string": "Cl.c1cnc2nc3ccc4ccc(C5=NCCN5)cc4n3c2c1", "relation_operator": "=", "assay_result": 6.57}
{"compound_string": "Clc1cccnc1/C=C/c1nc2ncccc2[nH]1", "relation_operator": "<", "assay_result": 4.00}
{"compound_string": "O=[N+]([O-])c1ccc(Cl)c(/C=C/c2nc3ncc(Br)cc3[nH]2)c1", "relation_operator": "=", "assay_result": 6.04}
{"compound_string": "O=c1[nH]cc(F)c(=O)[nH]1", "relation_operator": "<", "assay_result": 4.00}
{"compound_string": "C[n+]1cccc2c1nc1ccc3ccccc3n12.[I-]", "relation_operator": "=", "assay_result": 4.88}
{"compound_string": "C(=C\\c1nc2ncccc2[nH]1)/c1ccccc1", "relation_operator": "=", "assay_result": 5.41}
{"compound_string": "c1cnc2ccc3nc4ncccc4n3c2c1", "relation_operator": "<", "assay_result": 4.00}

###

Quick reference: IC50 of the listed items.
Test system: HeLa
protocol_description: Antiproliferative activity against human HeLa cells after 72 hrs by MTT assay
Assay type: functional, cell-based
condition_description: Homo sapiens, HeLa, 72 h

{"compound": "C[n+]1cccc2c1nc1ccc3ccccc3n12.[I-]", "relation_operator": "=", "IC50 (µM)": 7.52}
{"compound": "c1ccc2c(c1)ccc1nc3ncccc3n12 [7,8,11b-triazabenzo[c]fluorene]", "relation_operator": "=", "IC50 (µM)": 14.3}
{"compound": "C[n+]1cccc2c1nc1ccc3cc([N+](=O)[O-])ccc3n12", "relation_operator": "=", "IC50 (µM)": 11.4}
{"compound": "c1cnc2ccc3nc4ncccc4n3c2c1", "relation_operator": ">", "IC50 (µM)": 100}
{"compound": "O=[N+]([O-])c1ccc(Cl)c(/C=C/c2nc3ncc(Br)cc3[nH]2)c1", "relation_operator": "=", "IC50 (µM)": 3.68}
{"compound": "C(=C\\c1nc2ncccc2[nH]1)/c1ccccc1", "relation_operator": "=", "IC50 (µM)": 2.22}
{"compound": "Cl.c1cnc2nc3ccc4ccc(C5=NCCN5)cc4n3c2c1", "relation_operator": "=", "IC50 (µM)": 0.41}
{"compound": "Nc1ccc2c(ccc3nc4ncccc4n32)c1", "relation_operator": "=", "IC50 (µM)": 43.4}
{"compound": "O=[N+]([O-])c1ccc2c(ccc3nc4ncc(Br)cc4n32)c1", "relation_operator": "=", "IC50 (µM)": 13.4}
{"compound": "Clc1ccccc1/C=C/c1nc2ncccc2[nH]1", "relation_operator": "=", "IC50 (µM)": 31.6}
{"compound": "N#Cc1ccc(/C=C/c2nc3ncccc3[nH]2)cc1", "relation_operator": "=", "IC50 (µM)": 47.1}
{"compound": "N#Cc1ccc(/C=C/c2nc3ncc(Br)cc3[nH]2)cc1", "relation_operator": "=", "IC50 (µM)": 2.88}
{"compound": "N#Cc1ccc2ccc3nc4ncccc4n3c2c1", "relation_operator": "=", "IC50 (µM)": 39.5}
{"compound": "O=c1[nH]cc(F)c(=O)[nH]1", "relation_operator": "=", "IC50 (µM)": 10.3}
{"compound": "Brc1cnc2nc3ccc4ccc(C5=NCCN5)cc4n3c2c1.Cl", "relation_operator": "=", "IC50 (µM)": 1.1}
{"compound": "O=[N+]([O-])c1ccc(Cl)c(/C=C/c2nc3ncccc3[nH]2)c1", "relation_operator": "=", "IC50 (µM)": 45.1}
{"compound": "Nc1ccc2c(ccc3nc4ncc(Br)cc4n32)c1", "relation_operator": "=", "IC50 (µM)": 30.9}
{"compound": "O=[N+]([O-])c1ccc2c(ccc3nc4ncccc4n32)c1", "relation_operator": "=", "IC50 (µM)": 52.8}
{"compound": "Clc1cccnc1/C=C/c1nc2ncccc2[nH]1", "relation_operator": ">", "IC50 (µM)": 100}

###

Tested on: MIA PaCa-2
protocol_description: Cytostatic activity against human MIAPaCa2 cells at 1 to 10 uM after 72 hrs by MTT assay
Format: functional, cell-based
The source made the active and inactive calls. The rule behind the calls is not given here.
measurement_name: Activity

{"compound_string": "O=[N+]([O-])c1ccc(Cl)c(/C=C/c2nc3ncc(Br)cc3[nH]2)c1", "assay_result": "Active"}
{"compound_string": "Cl.c1cnc2nc3ccc4ccc(C5=NCCN5)cc4n3c2c1", "assay_result": "Active"}
{"compound_string": "C(=C\\c1nc2ncccc2[nH]1)/c1ccccc1", "assay_result": "Active"}

###

System: WI-38
protocol_description: Antiproliferative activity against human WI38 cells after 72 hrs by MTT assay
Type: cell-based
condition_description: wi-38
measurement_name: IC50

{"compound_string": "Nc1ccc2c(ccc3nc4ncc(Br)cc4n32)c1", "tested_system": "WI-38", "measurement_name": "IC50", "assay_result": "85.1 µM"}

###

Test system: SW-620
protocol_description: Antiproliferative activity against human SW620 cells after 72 hrs by MTT assay
Format: functional, cell-based
condition_description: Homo sapiens, SW-620, 72 h
pIC50: −log10 of the molar value.

{"compound_string": "O=[N+]([O-])c1ccc2c(ccc3nc4ncccc4n32)c1", "relation_operator": "<", "pIC50": 4.00}
{"compound_string": "N#Cc1ccc(/C=C/c2nc3ncc(Br)cc3[nH]2)cc1", "relation_operator": "=", "pIC50": 5.15}
{"compound_string": "Clc1cccnc1/C=C/c1nc2ncccc2[nH]1", "relation_operator": "<", "pIC50": 4.00}
{"compound_string": "Clc1ccccc1/C=C/c1nc2ncccc2[nH]1", "relation_operator": "=", "pIC50": 4.29}
{"compound_string": "N#Cc1ccc2ccc3nc4ncccc4n3c2c1", "relation_operator": "<", "pIC50": 4.00}
{"compound_string": "O=[N+]([O-])c1ccc(Cl)c(/C=C/c2nc3ncc(Br)cc3[nH]2)c1", "relation_operator": "=", "pIC50": 5.10}
{"compound_string": "Brc1cnc2nc3ccc4ccc(C5=NCCN5)cc4n3c2c1.Cl", "relation_operator": "=", "pIC50": 5.44}
